Biological target: UniProt:O35433
Experiment: 3H-RTx binding to intact S. cerevisiae cells expressing His-tagged TRPV1
Conditions: 37°C, Figure 1F, read-out: Kd of 3H-RTx binding (Hill fit)
property: Kd
# output: numeric value plus its unit

Query :: Which Kd value is on record for `C=C(C)[C@]12C[C@@H](C)[C@@]34O[C@](Cc5ccccc5)(O[C@@H]1[C@@H]3C=C(COC(=O)Cc1ccc(O)c(OC)c1)C[C@]1(O)C(=O)C(C)=C[C@@H]41)O2` ?
Result :: 30 nM

###

Target: full-length GFP-tagged TRPV1 (Rattus norvegicus, UniProt O35433)
Construct: Smooth function for full-length GFP-tagged TRPV1 is a fit of the Hill equation; expressed in transfected cells; host or cells: Saccharomyces cerevisiae (intact cells)
Sequence (O35433 whole entry): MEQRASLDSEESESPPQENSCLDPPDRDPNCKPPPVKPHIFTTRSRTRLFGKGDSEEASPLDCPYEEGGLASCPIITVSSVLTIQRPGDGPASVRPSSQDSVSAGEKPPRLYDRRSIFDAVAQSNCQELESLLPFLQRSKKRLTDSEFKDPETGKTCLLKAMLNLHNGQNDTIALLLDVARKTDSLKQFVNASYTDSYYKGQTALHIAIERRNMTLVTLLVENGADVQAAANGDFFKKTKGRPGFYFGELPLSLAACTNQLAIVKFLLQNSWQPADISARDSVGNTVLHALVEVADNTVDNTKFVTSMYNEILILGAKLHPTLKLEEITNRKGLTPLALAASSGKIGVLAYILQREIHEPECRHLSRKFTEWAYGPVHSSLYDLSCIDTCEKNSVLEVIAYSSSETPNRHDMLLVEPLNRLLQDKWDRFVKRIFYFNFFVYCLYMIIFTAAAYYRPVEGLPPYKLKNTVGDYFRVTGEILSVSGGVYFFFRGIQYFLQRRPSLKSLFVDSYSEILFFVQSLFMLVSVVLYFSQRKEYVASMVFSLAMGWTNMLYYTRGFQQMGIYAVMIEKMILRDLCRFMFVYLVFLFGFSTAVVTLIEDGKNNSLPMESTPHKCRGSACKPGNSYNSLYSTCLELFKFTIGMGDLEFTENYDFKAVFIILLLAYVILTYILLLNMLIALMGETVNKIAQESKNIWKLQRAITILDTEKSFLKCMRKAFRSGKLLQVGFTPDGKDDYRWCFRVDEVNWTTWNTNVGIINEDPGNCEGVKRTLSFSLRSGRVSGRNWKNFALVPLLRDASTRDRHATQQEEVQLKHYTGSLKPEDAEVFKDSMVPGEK
Assay: 3H-RTx binding to intact S. cerevisiae cells expressing GFP-tagged TRPV1
Settings: 37°C, Figure 1F, read-out: Kd of 3H-RTx binding (Hill fit)
property: Kd (nM)
Numbers only here, please. The scale is nM.

Query :: For the compound `C=C(C)[C@]12C[C@@H](C)[C@@]34O[C@](Cc5ccccc5)(O[C@@H]1[C@@H]3C=C(COC(=O)Cc1ccc(O)c(OC)c1)C[C@]1(O)C(=O)C(C)=C[C@@H]41)O2` , what Kd is on record?
Result :: 7.2
